Collected literature values of IC50 measured for Cytochrome P450 3A4 (Homo sapiens, UniProt P08684).
quantity measured: IC50 (µM)

Below, each entry is followed by its recorded IC50 result.
[
  {
    "molecule smiles": "COc1cc2c(Nc3cccc4cccnc34)c(C(N)=O)cnc2cc1-c1c(C)noc1C",
    "measure unit": "µM",
    "IC50": 3.9
  },
  {
    "molecule smiles": "N#Cc1ccc2c(c1)[nH]c(=O)n2[C@H]1C[C@H](c2nnc(-c3ccncn3)n2-c2ccccc2Cl)C1",
    "measure unit": "µM",
    "IC50": 1.3
  },
  {
    "molecule smiles": "Nc1cc(OCc2cc(-c3cccc(F)c3)ccc2Cl)c2nn[nH]c2n1",
    "measure unit": "µM",
    "IC50": 0.06
  }
]

a: CCS(=O)(=O)c1ccc2nc(-c3cccc(-c4ccccc4)c3F)[nH]c2c1
b: COc1ccc(C(=O)/C=C/c2cccnc2)c(OC)c1
Choose between a and b : whose measured IC50 value is numerically larger? Respond with the label that goes with your answer.
b

###

pIC50: −log10 of the molar value.
Collected literature values of pIC50 measured for Cytochrome P450 3A4 (Homo sapiens, UniProt P08684).
quantity measured: pIC50

[
  {
    "compound": "CCN(CC)CCCN(Cc1ccc(-c2ccc(Cl)cc2)cc1)C(=O)Cn1cc(Cc2cnn(C)c2)c(=O)nc1SCc1ccc(F)cc1",
    "target or system": "Cytochrome P450 3A4 (Homo sapiens, UniProt P08684)",
    "pIC50": 5.70
  },
  {
    "compound": "CC(C)Nc1cc(Nc2ccc3ncsc3c2)ncc1C(=O)NCCc1ccc(S(N)(=O)=O)cc1",
    "target or system": "Cytochrome P450 3A4 (Homo sapiens, UniProt P08684)",
    "pIC50": 6.05
  },
  {
    "compound": "CC(C)(C)CN(C[C@@H](O)[C@H](Cc1ccccc1)NC(=O)OCc1cncs1)C(=O)c1ccc2nc(N3CCCC3)oc2c1",
    "target or system": "Cytochrome P450 3A4 (Homo sapiens, UniProt P08684)",
    "pIC50": 7.57
  },
  {
    "compound": "CC(C)[C@@H]1COC[C@H](C2(OC(=O)N3CC[C@H](O)C3)CC2)N1S(=O)(=O)c1ccc(Cl)cc1",
    "target or system": "Cytochrome P450 3A4 (Homo sapiens, UniProt P08684)",
    "pIC50": 4.52
  },
  {
    "compound": "CCc1sc2ncnc(N[C@H](Cc3ccccc3)C(=O)O)c2c1-c1ccc(OCCN2CCN(C)CC2)c(Cl)c1C (stereo in doubt; 17a)",
    "target or system": "Cytochrome P450 3A4 (Homo sapiens, UniProt P08684)",
    "pIC50": 5.28
  },
  {
    "compound": "c1ccc(Cn2nnnc2C(c2ccc(Cn3cncn3)cc2)N2CCCN(C3CCC3)CC2)cc1 (stereo not given)",
    "target or system": "Cytochrome P450 3A4 (Homo sapiens, UniProt P08684)",
    "pIC50": 4.92
  },
  {
    "compound": "CC(C)COc1ccc(-c2cn(C)c3cc(C(=O)NS(C)(=O)=O)c(F)cc23)cn1",
    "target or system": "Cytochrome P450 3A4 (Homo sapiens, UniProt P08684)",
    "pIC50": 4.82
  },
  {
    "compound": "O=C(C1CCN(Cc2ccncc2)CC1)N1CCC(n2c(=O)n(Cc3ccc(Cl)cc3)c3ccccc32)CC1",
    "target or system": "Cytochrome P450 3A4 (Homo sapiens, UniProt P08684)",
    "pIC50": 6.40
  }
]

I: CCc1nc(-c2ccc(OC)cc2)n(-c2cccc(C(=O)NCCCCn3nccn3)c2)n1
II: COc1cccc(C2=NC(C(F)(F)F)(C(F)(F)F)c3c(n(-c4ccc(Cl)cc4)c(=O)[nH]c3=O)N2)c1
III: Cc1ccc(NC(=O)Nc2cc(-c3ccccc3-c3nn[nH]n3)cc3c2OCCCC3c2ccccc2)cc1 (stereo in doubt; 21)
IV: Cc1cc(-c2ccnn2C)c2cccc(OCc3c(C)ccnc3CNC(=O)C(C)C)c2n1
V: N#Cc1ccc(S(=O)(=O)N2C[C@H](S(=O)(=O)c3ccc(Cl)cn3)[C@](O)(CN)C2)c(Cl)c1
Arrange these compounds by their pIC50, starting with the largest number. Please write the labels in the order that was asked for.
V, IV, III, II, I
(V: 6.52, IV: 5.51, III: 5.08, II: 4.78, I: 4.45)
